Assay: Selectivity index, ratio of CC50 for MDCK cells to IC50 for influenza virus type A H1N1
Assay type: functional
Catalogue of Ratio CC50/IC50 readings, one per entry.

INSERT INTO measurements (compound, property_name, endpoint_value) VALUES
  ('C[C@@H]1O[C@@H](Oc2c(-c3ccc(O)cc3)oc3cc(O)cc(O)c3c2=O)[C@H](O)[C@H](O)[C@H]1O[C@@H]1O[C@H](CO)[C@@H](O)[C@H](O)[C@H]1O', 'Ratio CC50/IC50', '<0.8'),
  ('O=c1c(O[C@@H]2O[C@H](CO)[C@H](O)[C@H](O)[C@H]2O)c(-c2ccc(O)cc2)oc2cc(O)cc(O)c12', 'Ratio CC50/IC50', '<0.7'),
  ('O=c1c(O[C@@H]2O[C@H](CO)[C@@H](O)[C@H](O)[C@H]2O)c(-c2ccc(O)cc2)oc2cc(O)cc(O)c12', 'Ratio CC50/IC50', 16);

Read the entry O=c1c(O[C@@H]2O[C@H](CO)[C@@H](O)[C@H](O)[C@H]2O[C@@H]2OC[C@@H](O)[C@H](O)[C@H]2O)c(-c2ccc(O)c(O)c2)oc2cc(O)cc(O)c12 and write its reported Ratio CC50/IC50.
<1

Read the entry O=c1c(O[C@@H]2O[C@H](CO[C@@H]3O[C@H](CO)[C@@H](O)[C@H](O)[C@H]3O)[C@@H](O)[C@H](O)[C@H]2O[C@@H]2OC[C@@H](O)[C@H](O)[C@H]2O)c(-c2ccc(O)cc2)oc2cc(O)cc(O)c12 and write its reported Ratio CC50/IC50.
<1.1

Read the entry O=c1c(O[C@@H]2O[C@H](CO)[C@@H](O)[C@H](O)[C@H]2O[C@@H]2OC[C@@H](O)[C@H](O)[C@H]2O)c(-c2ccc(O)cc2)oc2cc(O)cc(O)c12 and write its reported Ratio CC50/IC50.
<0.5

Read the entry COc1ccc(-c2oc3cc(O)cc(O)c3c(=O)c2O[C@@H]2O[C@H](CO)[C@@H](O)[C@H](O)[C@H]2O[C@@H]2OC[C@@H](O)[C@H](O)[C@H]2O)cc1O[C@@H]1O[C@H](CO)[C@@H](O)[C@H](O)[C@H]1O [AESCUFLAVOSIDE A] and write its reported Ratio CC50/IC50.
<0.6

Read the entry C[C@@H]1O[C@@H](OC[C@H]2O[C@@H](Oc3c(-c4ccc(O)c(O[C@@H]5O[C@H](CO)[C@@H](O)[C@H](O)[C@H]5O)c4)oc4cc(O)cc(O)c4c3=O)[C@H](O[C@@H]3OC[C@@H](O)[C@H](O)[C@H]3O)[C@@H](O)[C@@H]2O)[C@H](O)[C@H](O)[C@H]1O [AESCUFLAVOSIDE] and write its reported Ratio CC50/IC50.
<1.1
